- Measurement Target: T1, Human CD137 ECD (human)
- T1 construct: entry includes C-terminal His-tag and biotin acceptor peptide; also called human CD137 extracellular domain; 4-1BB
- T1 sequence (chain, as listed by the source limits assumed): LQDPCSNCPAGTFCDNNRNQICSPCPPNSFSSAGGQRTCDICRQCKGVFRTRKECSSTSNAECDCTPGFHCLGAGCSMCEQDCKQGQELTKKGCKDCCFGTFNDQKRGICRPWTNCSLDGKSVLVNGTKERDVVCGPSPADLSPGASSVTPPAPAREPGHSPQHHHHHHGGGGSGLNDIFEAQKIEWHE
- Assay Details: Biacore SPR, vs parent H183/L072
What fold change of affinity was measured for each of the following?
Answers without a unit are incomplete; give the number and then its unit.

Binder	fold change of affinity
H183/L072 VL H27dA (antibody, name in Kabat numbering, V domains shown, Dual-Ig) VH: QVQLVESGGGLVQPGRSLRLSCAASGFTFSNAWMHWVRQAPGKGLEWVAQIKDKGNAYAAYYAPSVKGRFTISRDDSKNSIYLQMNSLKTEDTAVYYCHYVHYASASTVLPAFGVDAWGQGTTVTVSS VL: DIVMTQSPLSLPVTPGEPASISCQASQELVAMNRNTYLHWYQQKPGQAPRLLIYKVSNRFPGVPDRFSGSGSGTDFTLKISRVEAEDVGVYYCAQGTSVPFTFGQGTKLEIK	0.7 fold

Alright, here's another binder for you.
// query Item H183/L072 VL P56T (antibody, name in Kabat numbering, V domains shown, Dual-Ig) VH: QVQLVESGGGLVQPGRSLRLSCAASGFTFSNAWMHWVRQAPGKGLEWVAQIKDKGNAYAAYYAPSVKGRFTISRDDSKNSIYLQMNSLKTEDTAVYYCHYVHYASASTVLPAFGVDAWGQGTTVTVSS VL: DIVMTQSPLSLPVTPGEPASISCQASQELVHMNRNTYLHWYQQKPGQAPRLLIYKVSNRFTGVPDRFSGSGSGTDFTLKISRVEAEDVGVYYCAQGTSVPFTFGQGTKLEIK has what recorded fold change of affinity?
// result 0.2 fold
